Experiment: Inhibition of Saccharomyces cerevisiae alpha-glucosidase using p-nitrophenyl-alpha-D-glucopyranoside as substrate after 30 mins
We begin with a simple list: items and their reported IC50.

compound	IC50 [mM]
C=C1OC(=O)[C@]2([C@H](C)C=CC(=O)[C@@H]2O)[C@H]1O [MASSARIGENIN C]	1.25
C[C@H](O)[C@H](O)C[C@H]1OCc2c(O)cccc21	2.25
C[C@H]1O[C@H](O[C@H]2[C@H](O)[C@@H](O)[C@@H](O[C@H]3[C@H](O)[C@@H](O)C(O)O[C@@H]3CO)O[C@@H]2CO)[C@H](O)[C@@H](O)[C@@H]1N[C@H]1C=C(CO)[C@@H](O)[C@H](O)[C@H]1O (some centres undefined) [ACARBOSE]	0.5
O=C1C=Cc2cccc(O)c2CO1	1.07
